What normalized growth was measured for each of the following?
Assay: chemical genetic growth profiling, strain panel (AID 1159580);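 note: tested at 20 µM; growth read once vehicle control cultures reached saturation at 30 °C; 1 = growth at the plate median or of vehicle wells; lower values mean less growth of the strain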
Details: S. cerevisiae deletion strains, growth OD, locus YML120C, strain ndi1, active compounds read low
The whole screen tested about 5,500 compounds, of which about 2,000 (36%) were called active. About 18% were inconclusive and are not listed. The list shows a part of the results.
Give bare numbers.

Previously resolved entries follow.
smiles.notation: COc1ccc([C@H]2Oc3c(I)c(OC)cc(OC)c3C[C@@H]2O)cc1OC
normalized growth: 1.01
--
smiles.notation: Oc1cc(O)c2c(c1)O[C@H](c1ccc(O)c(O)c1)[C@H](O)C2
normalized growth: 0.996
--
smiles.notation: COc1ccc(CN(CCN(C)C)c2ccccn2)cc1
normalized growth: 1.02
--
smiles.notation: CN1CC(=O)N=C1N
normalized growth: 1.03
--
smiles.notation: Oc1cc(O)c2c(c1)O[C@H](c1cc(O)c(O)c(O)c1)[C@H](O)C2
normalized growth: 1.04

Continue with the molecule presented below.
So what does the record say about normalized growth for `Oc1cc(O)c2c(c1)O[C@H](c1ccc(O)c(O)c1)[C@@H](O)C2` ?
1.01
